The measurements presented in this section are drawn from ChEMBL document CHEMBL3988442.

# measured.on: Aspartate--tRNA(Asp/Asn) ligase (Mycobacterium tuberculosis (strain ATCC 25618 / H37Rv))
# assay.details: Assay for Asp RNA synthetase-1 from Mycobacterium tuberculosis
# Assay type: functional
# Design: scale not given: direction of the effect not stated beside the values
# applied.conditions: 30 µM
The following compounds are shown together with reported Percent Effect values.
test.readout: Percent Effect (%)

compound	test.readout	observed.result
Cc1nccn1-c1cccc(C2CCCN(C3CCCCC3)C2)n1 (stereo unspecified)	Percent Effect	-3.11
CN(CC(=O)NC1(C#N)CCCC1)C1CCCN(c2cccnn2)C1 (stereo unspecified)	Percent Effect	7.28
Cn1cc(CN2C[C@@H]3CN(Cc4ccoc4)CCO[C@@H]3C2)cn1	Percent Effect	3.69
Cn1c(CC2CCS(=O)(=O)C2)nnc1SCCOc1ccccc1F (stereo unspecified)	Percent Effect	2.75
CN(CC1(O)CCCCC1)C1CCCN(Cc2noc(C3CC3)n2)C1 (stereo unspecified)	Percent Effect	-2.39
COCCOc1ncccc1C(=O)Nc1ccc(-n2cncn2)c(F)c1	Percent Effect	-3.21

* * *

# measured.on: Sialic acid-binding Ig-like lectin 9 (Homo sapiens) (UniProt Q9Y336)
# Sequence (Q9Y336 whole entry): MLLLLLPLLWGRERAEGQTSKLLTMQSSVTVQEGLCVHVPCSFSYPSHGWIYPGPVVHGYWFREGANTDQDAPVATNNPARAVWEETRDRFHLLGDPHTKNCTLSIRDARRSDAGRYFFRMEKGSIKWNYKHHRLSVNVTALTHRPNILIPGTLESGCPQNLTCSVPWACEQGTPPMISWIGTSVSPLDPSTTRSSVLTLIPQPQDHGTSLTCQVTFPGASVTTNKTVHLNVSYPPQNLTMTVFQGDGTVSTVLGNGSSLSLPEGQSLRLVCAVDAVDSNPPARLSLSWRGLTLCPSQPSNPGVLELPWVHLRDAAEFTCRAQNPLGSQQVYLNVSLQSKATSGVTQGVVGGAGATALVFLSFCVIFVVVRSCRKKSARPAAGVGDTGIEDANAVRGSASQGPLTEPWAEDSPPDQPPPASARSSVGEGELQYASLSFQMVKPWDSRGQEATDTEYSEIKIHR
# assay.details: Hs-Siglec9 ALPHAscreen SOP 20170721
# Parameters: scale not given: direction of the effect not stated beside the values
# applied.conditions: 10 µM
Listed here are compounds together with their documented Percent Effect.

compound	measured.on	unit.abbrev	Percent Effect
NCC1(c2cccc(Br)c2)CCOCC1	Sialic acid-binding Ig-like lectin 9 (Homo sapiens) (UniProt Q9Y336)	%	-6.14
CCCN1CCN(Cc2nccn2CC)C(C)C1 (stereo unspecified)	Sialic acid-binding Ig-like lectin 9 (Homo sapiens) (UniProt Q9Y336)	%	-10.4
CC(C)CN1C[C@H]2C[C@H](C(=O)Nc3cccnc3)[C@@H](C1)O2	Sialic acid-binding Ig-like lectin 9 (Homo sapiens) (UniProt Q9Y336)	%	-2.44
c1cnc(N2CCC3(CCN(CC4CCOC4)C3)CC2)nc1 (stereo unspecified)	Sialic acid-binding Ig-like lectin 9 (Homo sapiens) (UniProt Q9Y336)	%	-2.65
C[C@H]1C(=O)NC[C@H]2CN(Cc3ccccc3)C[C@H]21	Sialic acid-binding Ig-like lectin 9 (Homo sapiens) (UniProt Q9Y336)	%	-0.437
CC(C)NC(=O)[C@H]1C[C@@H]2[C@@H](C1)OCCN2Cc1cccnc1	Sialic acid-binding Ig-like lectin 9 (Homo sapiens) (UniProt Q9Y336)	%	6.39
O=C(NC[C@]12COC[C@H]1CN(Cc1cccnc1)C2)c1ccno1	Sialic acid-binding Ig-like lectin 9 (Homo sapiens) (UniProt Q9Y336)	%	-8.01
Cc1cc(CN2C[C@@H]3COC[C@]3(CN(C)C)C2)no1	Sialic acid-binding Ig-like lectin 9 (Homo sapiens) (UniProt Q9Y336)	%	3.28
Cn1cc(N2C(=O)CC[C@@H]3[C@H]2CCN3Cc2ccncc2)cn1	Sialic acid-binding Ig-like lectin 9 (Homo sapiens) (UniProt Q9Y336)	%	5.41
CCN1C[C@H]2[C@@H](C1)N(S(=O)(=O)c1cccnc1)CC[C@H]2OC	Sialic acid-binding Ig-like lectin 9 (Homo sapiens) (UniProt Q9Y336)	%	-6.52
c1ccc(O[C@H]2CC[C@H]3[C@H]2OCCN3Cc2nccs2)nc1	Sialic acid-binding Ig-like lectin 9 (Homo sapiens) (UniProt Q9Y336)	%	10.1

* * *

# measured.on: Shiga toxin 2 (Escherichia coli O157:H7) (UniProt P09385+P09386)
# assay.details: E. coli 0.157:H7 Shiga Toxin SOP - stx2 screening assay
# Type: functional
# Parameters: scale not given: direction of the effect not stated beside the values
# applied.conditions: 30 µM
test.readout: Percent Effect (%)

compound	observed.result
CS(=O)(=O)N1Cc2ccccc2C2(CCN(C(=O)c3ccno3)CC2)C1	-6.76
c1ccc(-c2nccc(CNCC3CCCN3c3cccnn3)n2)cc1 (stereo unspecified)	11.8
Cc1nc(C)n(CC2CCCN(CCNC(=O)OC(C)(C)C)C2)n1 (stereo unspecified)	7.06
CC(C)N1CCC2(CCN(C(=O)c3cccnc3)CC2)C1	-5.59
O=C1N(CC2CC2)CCC12CCN(c1ncccn1)CC2	-4.25
Cc1nc(COc2ccc(CNCC3CN(C)CCO3)cc2)cs1 (stereo unspecified)	-13.8
CC(=O)N1CCCN(C(=O)c2ccn(-c3cccc(Cl)c3)n2)CC1	5.49
Cc1nc(CN(C)C2CCCN(c3cccnn3)C2)no1 (stereo unspecified)	-10.7
NC(=O)c1cc(C2CCCN(CCc3ccccn3)C2)n[nH]1 (stereo unspecified)	-5.89
Cc1noc(-c2ccc(N3CCCC(C(=O)N4CCSCC4)C3)nc2)n1 (stereo unspecified)	10.1
CCn1cc(NC(=O)C2CCN(Cc3ccccc3C#N)CC2)cn1	-53.9
